- measuredOn: Ba/F3-FL-TYK2-P760L cells (Homo sapiens, UniProt P29597, P760L, cells depend on it)
- Construct: BaF3-FL-T2P760L (nM)
- Sequence (P29597 whole entry P760L): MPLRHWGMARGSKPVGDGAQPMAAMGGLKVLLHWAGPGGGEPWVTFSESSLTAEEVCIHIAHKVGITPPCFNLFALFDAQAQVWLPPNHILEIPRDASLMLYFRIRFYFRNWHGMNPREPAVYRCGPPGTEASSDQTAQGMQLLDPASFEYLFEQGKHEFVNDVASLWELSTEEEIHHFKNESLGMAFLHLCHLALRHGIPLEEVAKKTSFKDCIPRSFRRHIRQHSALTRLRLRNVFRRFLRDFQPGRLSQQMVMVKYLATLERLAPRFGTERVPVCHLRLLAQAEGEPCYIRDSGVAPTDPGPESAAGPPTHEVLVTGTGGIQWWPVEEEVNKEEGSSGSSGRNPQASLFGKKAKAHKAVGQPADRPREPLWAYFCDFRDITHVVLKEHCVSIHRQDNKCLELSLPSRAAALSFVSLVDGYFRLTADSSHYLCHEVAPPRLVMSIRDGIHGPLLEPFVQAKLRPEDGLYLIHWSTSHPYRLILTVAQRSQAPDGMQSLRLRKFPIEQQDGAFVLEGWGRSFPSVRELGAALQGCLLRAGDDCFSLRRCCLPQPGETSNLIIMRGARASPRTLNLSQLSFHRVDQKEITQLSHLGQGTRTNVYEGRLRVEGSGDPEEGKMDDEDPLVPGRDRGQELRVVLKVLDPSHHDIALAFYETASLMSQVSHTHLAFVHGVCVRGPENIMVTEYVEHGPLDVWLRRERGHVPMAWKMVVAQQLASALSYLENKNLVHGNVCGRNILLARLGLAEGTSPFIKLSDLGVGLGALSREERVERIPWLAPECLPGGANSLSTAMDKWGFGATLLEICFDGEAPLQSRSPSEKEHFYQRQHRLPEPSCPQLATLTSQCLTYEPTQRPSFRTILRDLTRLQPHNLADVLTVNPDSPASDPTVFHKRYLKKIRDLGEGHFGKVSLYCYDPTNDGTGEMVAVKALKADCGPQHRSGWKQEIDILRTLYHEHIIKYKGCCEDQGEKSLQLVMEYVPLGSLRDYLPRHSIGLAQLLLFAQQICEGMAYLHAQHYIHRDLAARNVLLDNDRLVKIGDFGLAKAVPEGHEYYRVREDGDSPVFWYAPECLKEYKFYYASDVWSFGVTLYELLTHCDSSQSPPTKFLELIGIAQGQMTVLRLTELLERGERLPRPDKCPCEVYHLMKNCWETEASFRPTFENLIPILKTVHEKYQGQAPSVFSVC
- protocolSummary: Anti-proliferative assay, Ba/F3-FL-TYK2-P760L cells (Cell-Titer Glo)
- Format: cell-based
- experimentalContext: 72 h, read-out: BaF3-FL-T2P760L IC50
attributeMeasured: GI50 (nM)

The following compounds have reported results that may help.
[2H]C([2H])([2H])NC(=O)c1cnc(NC(=O)C2CC2)cc1Nc1ccn2ncc(C#N)c2c1OC; 98.2
CCn1cc(Nc2cc(NC(=O)C3CC3)ncc2C(=O)NC)c2c(=O)n([C@H](C)C(F)(F)F)cnc21 (single isomer, unassigned) [Example 254A]; 179
[2H]C([2H])([2H])NC(=O)c1cnc(NC(=O)C(F)(F)F)cc1Nc1ccc2cnn(CC)c2c1OC; 2610

(P) CNC(=O)c1cnc(Nc2ccc(F)cn2)nc1Nc1cccc(-c2ncn(C)n2)c1OC
(Q) [2H]C([2H])([2H])NC(=O)c1cnc(Nc2ccn(C)n2)cc1Nc1ccn2ncc(C)c2c1OC
(R) [2H]C([2H])([2H])NC(=O)c1cnc(NC(=O)C2CCC2)cc1Nc1ccc2cnn(CC)c2c1OC
(S) [2H]C([2H])([2H])NC(=O)c1cnc(Nc2ccn(C)n2)cc1Nc1cn(C)c2c(C)cn(CC)c(=O)c12
Provide the items ranked by increasing GI50. Return the labels ranked in the requested order, please.
Q, R, S, P
(Q: 116 nM, R: 404 nM, S: 585 nM, P: 1350 nM)

###

- protocolSummary: Microsomal metabolic stability assay
- Assay type: in vitro ADME
- experimentalContext: pH 7.4; rat liver microsomes, 0.5 mg/mL protein, 1 μM compound; read-out: Rat LM Clint
attributeMeasured: microsomal CLint at 1 μM (µL/min/mg)

(A) [2H]C([2H])([2H])NC(=O)c1nnc2cc1Nc1cc(cc(-c3ncn(C4CC4)n3)c1OC)COCc1nc(ccc1F)N2
(B) CNC(=O)c1cnc(NC(=O)C2CC2)cc1Nc1cn(C)c2c(F)cn(C)c(=O)c12
(C) CCn1ccc2scc(Nc3cc(NC(=O)C4CC4)ncc3C(=O)NC)c2c1=O
(D) CCn1ccc2c(c(Nc3cc(NC(=O)C4CC4)nnc3C(=O)NC)cn2C)c1=O
Rank the items above by microsomal CLint at 1 μM, largest value first. Return the labels ranked in the requested order, please.
C, B, D, A

###

- measuredOn: JAK1-JH2 domain (Homo sapiens)
- Construct: IC50 on JH2 domain activity (nM)
- Sequence (P23458 583-855 limits assumed): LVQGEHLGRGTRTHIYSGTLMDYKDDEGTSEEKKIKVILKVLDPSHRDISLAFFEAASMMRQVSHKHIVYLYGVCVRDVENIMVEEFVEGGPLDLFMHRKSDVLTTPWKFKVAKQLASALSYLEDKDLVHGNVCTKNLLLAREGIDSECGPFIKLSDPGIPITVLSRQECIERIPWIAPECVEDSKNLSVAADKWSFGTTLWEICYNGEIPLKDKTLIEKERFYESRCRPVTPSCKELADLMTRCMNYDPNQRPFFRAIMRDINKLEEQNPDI
- protocolSummary: Binding activity test for JH2 domain of JAK1 (Tb-antibody/tracer FRET)
- Description: Binding Activity Test for […] Domain of JAK1 and TYK2 The compounds are prepared in DMSO for 200× top dose, then serial dilute it with 27-fold for 3 more points. Add 8 μL/well in echo source plate, echo will add 75 nL/well with 3-fold serial dilution for 11 points in assay plate. 75 nL DMSO for high control and low control. […] For low control, add 5 μL/well assay buffer. […] Read by envision in FRET mode. The Luminescence value was recorded by a multi-label reader Envision (PerkinElmer).
pIC50: −log10 of the molar value.
attributeMeasured: pIC50

The following compounds have reported results that may help.
C=CCn1cc(Nc2cc(NC(=O)C3CC3)ncc2C(=O)NC)c2c(=O)n(CC)ccc21; 7.93
[2H]C([2H])([2H])NC(=O)c1cnc(NC(=O)C2CC2)cc1Nc1ccc2cnn(C)c2c1OC; 7.96

(a) [2H]C([2H])([2H])NC(=O)c1cnc(NC(=O)C2CC2)cc1Nc1ncc2cnn(CCC(F)(F)F)c2c1OC
(b) [2H]C([2H])([2H])NC(=O)c1cnc(NC(=O)C2CC2)cc1Nc1ccn2nccc2c1OC
(c) [2H]C([2H])([2H])NC(=O)c1cnc(NC(=O)C2CC2)cc1Nc1ncc2cnn(CC(C)(F)F)c2c1OC
(d) [2H]C([2H])([2H])NC(=O)c1cnc(NC(=O)C2CC2)cc1Nc1ccn2ncc(C(C)C#N)c2c1OC (single isomer, unassigned) [Example 251B]
(e) [2H]C([2H])([2H])NC(=O)c1cnc(Nc2ccc(N3CCOCC3)cn2)cc1Nc1ccc2cnn(CC)c2c1OC
Provide the items ranked by increasing pIC50. Return the labels ranked in the requested order, please.
c, a, b, d, e
